Measured values drawn from patent US20090029949A1 for this set.

# assayedTarget: S1P1 mutant W6.48A (Homo sapiens, UniProt P21453, W269A)
# Sequence (P21453 whole entry W269A): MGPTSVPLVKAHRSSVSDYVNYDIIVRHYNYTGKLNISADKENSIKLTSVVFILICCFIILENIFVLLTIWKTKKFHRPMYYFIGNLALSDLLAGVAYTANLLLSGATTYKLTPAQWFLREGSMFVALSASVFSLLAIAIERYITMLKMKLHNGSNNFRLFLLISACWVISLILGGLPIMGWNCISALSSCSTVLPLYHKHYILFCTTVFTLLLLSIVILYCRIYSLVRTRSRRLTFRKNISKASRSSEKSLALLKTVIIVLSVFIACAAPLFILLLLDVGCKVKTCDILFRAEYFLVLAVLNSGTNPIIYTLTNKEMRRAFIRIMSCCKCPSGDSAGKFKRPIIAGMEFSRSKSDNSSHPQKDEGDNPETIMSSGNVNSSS
# methodSummary: [32P]S1P competition binding, HEK-293 cells, W6.48A
# measurementConditions: S1P1 W6.48A, competition with cold S1P, read-out: KD + s.d.
measurementName: pKd
// pKd is dimensionless: -log10 of concentration (M)

### Prompt Find the measured pKd of CCCCCCCCCCCCC/C=C/[C@@H](O)[C@@H](N)COP(=O)(O)O [S1P, Sphingosine 1-phosphate] and report it.
### Response 7.41

* * *

# assayedTarget: S1P1 mutant V6.40A (Homo sapiens, UniProt P21453, V261A)
# Sequence (P21453 whole entry V261A): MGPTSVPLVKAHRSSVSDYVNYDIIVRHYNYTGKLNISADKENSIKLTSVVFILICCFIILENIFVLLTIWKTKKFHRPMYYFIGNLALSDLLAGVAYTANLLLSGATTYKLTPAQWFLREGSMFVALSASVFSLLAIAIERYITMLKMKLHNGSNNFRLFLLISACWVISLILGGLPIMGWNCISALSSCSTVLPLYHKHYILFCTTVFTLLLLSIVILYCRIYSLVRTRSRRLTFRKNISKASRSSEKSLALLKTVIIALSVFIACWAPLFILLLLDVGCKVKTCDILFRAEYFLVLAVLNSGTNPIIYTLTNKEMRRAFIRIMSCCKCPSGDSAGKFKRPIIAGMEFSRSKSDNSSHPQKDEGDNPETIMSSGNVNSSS
# methodSummary: [35S]GTPγS binding, S1P1 V6.40A
# measurementConditions: S1P-induced, S1P1 V6.40A in RH7777 cells
measurementName: EC50 (nM)
The reply should contain only the number, in nM.

### Prompt Output measured EC50 for this item: CCCCCCCCCCCCC/C=C/[C@@H](O)[C@@H](N)COP(=O)(O)O [S1P, Sphingosine 1-phosphate]
### Response 14.8
